Exercise: state measured Change for each of the molecules provided.
Species: Cavia porcellus
assay-details: Nagative chronotropic activity was expressed as percent changes in atrial rate on guinea pig spontaneously beating isolated right atrium at 10 e-5 M
Assay type: functional, Cardiac atrium
Quick reminder: number only, in %, skip the unit.

Req: Using the record for COc1ccc(CCN(C)C2CCCC(C(C#N)(c3ccc(OC)c(OC)c3)C(C)C)C2)cc1OC (stereo in doubt; 2b) , report its Change.
Resp: 93

Req: Now consider COc1ccc(CCN(C)C2CCCC(C(C#N)(c3ccc(OC)c(OC)c3)C(C)C)C2)cc1OC (stereo in doubt; 2a) .
Resp: 78

Req: COc1ccc(CCN(C)C2CCCC(C(C#N)(c3ccc(OC)c(OC)c3)C(C)C)C2)cc1OC (stereo in doubt; 2c) , same question.
Resp: 89

Req: Repeat for the following molecule: COc1ccc(CCN(C)CCCC(C#N)(c2ccc(OC)c(OC)c2)C(C)C)cc1OC (stereo not given)
Resp: 94

Req: Consider next the molecule COc1ccc(CCN(C)C2CCCC(C(C#N)(c3ccc(OC)c(OC)c3)C(C)C)C2)cc1OC (stereo in doubt; 2d) in the same way.
Resp: 75

====

Species on record: Cavia porcellus
assay-details: Negative chronotropic activity was calculated from log concentration/response curves
Format: functional
Please go through the items and note down their log10(ED30).
The base-10 logarithm of ED30, taken with ED30 in µM, is what appears here.

Req: May I ask what log10(ED30) has been recorded for COc1ccc(CCN(C)CCCC(C#N)(c2ccc(OC)c(OC)c2)C(C)C)cc1OC (centres undefined) ?
Resp: -1.15

Req: What do you have for COc1ccc(CCN(C)C2CCCC(C(C#N)(c3ccc(OC)c(OC)c3)C(C)C)C2)cc1OC (stereo in doubt; 2a) ?
Resp: -1.12

Req: Now this one: COc1ccc(CCNC2CCCC(C(C#N)(c3ccc(OC)c(OC)c3)C(C)C)C2)cc1OC (stereo in doubt; 7c)
Resp: 0.15

Req: Now this one: COc1ccc(CCNC2CCCC(C(C#N)(c3ccc(OC)c(OC)c3)C(C)C)C2)cc1OC (stereo in doubt; 7a)
Resp: 0.38

Req: Likewise for COc1ccc(CCN(C)C2CCCC(C(C#N)(c3ccc(OC)c(OC)c3)C(C)C)C2)cc1OC (stereo in doubt; 2b) ?
Resp: -0.64

Req: Same again, this time with COc1ccc(CCNC2CCCC(C(C#N)(c3ccc(OC)c(OC)c3)C(C)C)C2)cc1OC (stereo in doubt; 7b)
Resp: -1.22

Req: How about this compound: COc1ccc(CCN(C)C2CCCC(C(C#N)(c3ccc(OC)c(OC)c3)C(C)C)C2)cc1OC (stereo in doubt; 2c)
Resp: 0.11

Req: Same lookup for COc1ccc(CCNC2CCCC(C(C#N)(c3ccc(OC)c(OC)c3)C(C)C)C2)cc1OC (stereo in doubt; 7d) , please.
Resp: -0.43

Req: Do the same for COc1ccc(CCN(C)C2CCCC(C(C#N)(c3ccc(OC)c(OC)c3)C(C)C)C2)cc1OC (stereo in doubt; 2d) please
Resp: -0.38
